Hey, just so you know, these numbers are from patent US20240116985A1.

Would you kindly list EC50 for each of these binders?
Molecular target: full-length beta-Catenin (Uniprot ID P35222) (Homo sapiens (Human)) (UniProt P35222)
Sequence (P35222 whole entry): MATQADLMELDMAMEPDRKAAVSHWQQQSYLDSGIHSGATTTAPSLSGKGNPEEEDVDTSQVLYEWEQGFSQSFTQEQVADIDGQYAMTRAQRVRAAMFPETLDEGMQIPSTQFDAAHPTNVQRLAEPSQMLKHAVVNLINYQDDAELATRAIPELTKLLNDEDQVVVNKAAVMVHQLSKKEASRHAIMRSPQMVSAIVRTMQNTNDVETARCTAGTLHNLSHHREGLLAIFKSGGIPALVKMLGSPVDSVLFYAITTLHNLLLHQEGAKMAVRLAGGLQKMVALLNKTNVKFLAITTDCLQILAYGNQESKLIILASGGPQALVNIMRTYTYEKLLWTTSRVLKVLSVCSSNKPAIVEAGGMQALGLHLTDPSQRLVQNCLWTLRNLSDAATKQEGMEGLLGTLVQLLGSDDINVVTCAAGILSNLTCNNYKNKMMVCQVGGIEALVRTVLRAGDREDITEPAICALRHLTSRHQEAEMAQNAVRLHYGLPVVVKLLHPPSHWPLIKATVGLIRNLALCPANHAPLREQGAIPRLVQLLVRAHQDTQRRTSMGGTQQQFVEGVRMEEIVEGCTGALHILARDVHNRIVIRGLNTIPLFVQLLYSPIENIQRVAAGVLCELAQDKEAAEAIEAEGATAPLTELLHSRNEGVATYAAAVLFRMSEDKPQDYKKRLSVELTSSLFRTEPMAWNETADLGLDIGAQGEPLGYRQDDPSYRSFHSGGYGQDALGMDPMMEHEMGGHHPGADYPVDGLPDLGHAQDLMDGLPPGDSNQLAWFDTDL
Test: fluorescence polarization competition vs 5FAM-TCF4(10-53) on full-length beta-catenin
Starred links: 1 amine or outer side, 2 acyl side, 3 side chain; linkers in the order of their positions; H or OH if unused. Positions of bridges follow the written chain, without caps; N, C: chain ends. Non-standard residues stand in square brackets, D forms with d. Primed or numbered codes have the meaning given here. *: point of attachment. PyrS2″ = (S)-3-amino-1-((pent-4-en-1-yloxy)carbonyl)pyrrolidine-3-carboxylic acid (stapling residue), C=CCCCOC(=O)N1CC[C@@](N[*:1])(C(=O)[*:2])C1; B5(4) = 2,2-bis(4-pentenyl)glycine = 2-amino-2-(pent-4-en-1-yl)hept-6-enoic acid (stitching residue), C=CCCCC(CCCC=C)(N[*:1])C(=O)[*:2]; Bta = N[C@@H](Cc1csc2ccccc12)C(=O)O; αAllylPro = C=CC[C@@]1(C(=O)O)CCCN1; Azidoacetyl = [N-]=[N+]=NCC(=O)*; tBuAla = CC(C)(C)C[C@H](N)C(=O)O; 3Thi = N[C@@H](Cc1ccsc1)C(=O)O
State the value, then name its unit.

Q) # get_value(readout='EC50', item= Ac-[αAllylPro]DK(Azidoacetyl)[B5(4)]DDAAFN[PyrS2″][3Thi][Bta]Q-NH2 (staple 1-4, 4-11) [I-880] )
A) 6 nM

Q) # get_value(readout='EC50', item= Ac-[αAllylPro]D[tBuAla][B5(4)]DDK(Azidoacetyl)AFN[PyrS2″][3Thi][Bta]Q-NH2 (staple 1-4, 4-11) [I-879] )
A) 6 nM

Q) # get_value(readout='EC50', item= Ac-[αAllylPro]D[tBuAla][B5(4)]DDAAFN[PyrS2″][3Thi][Bta]K(Azidoacetyl)-NH2 (staple 1-4, 4-11) [I-878] )
A) 6 nM
